Cited source: patent EP3539977B1

Target: UmChlE (Mycosarcoma maydis, UniProt A0A060S684, P492L)
Construct: purification of the chlorogenic acid esterase UmChlE from culture supernatant of U. maydis was accomplished by three complementary separation steps; made in house; host or cells: Ustilago maydis itself (native producer), culture supernatant; Q Sepharose FF, preparative IEF, polyamide column
Sequence (A0A060S684 22-585, stated change not applied): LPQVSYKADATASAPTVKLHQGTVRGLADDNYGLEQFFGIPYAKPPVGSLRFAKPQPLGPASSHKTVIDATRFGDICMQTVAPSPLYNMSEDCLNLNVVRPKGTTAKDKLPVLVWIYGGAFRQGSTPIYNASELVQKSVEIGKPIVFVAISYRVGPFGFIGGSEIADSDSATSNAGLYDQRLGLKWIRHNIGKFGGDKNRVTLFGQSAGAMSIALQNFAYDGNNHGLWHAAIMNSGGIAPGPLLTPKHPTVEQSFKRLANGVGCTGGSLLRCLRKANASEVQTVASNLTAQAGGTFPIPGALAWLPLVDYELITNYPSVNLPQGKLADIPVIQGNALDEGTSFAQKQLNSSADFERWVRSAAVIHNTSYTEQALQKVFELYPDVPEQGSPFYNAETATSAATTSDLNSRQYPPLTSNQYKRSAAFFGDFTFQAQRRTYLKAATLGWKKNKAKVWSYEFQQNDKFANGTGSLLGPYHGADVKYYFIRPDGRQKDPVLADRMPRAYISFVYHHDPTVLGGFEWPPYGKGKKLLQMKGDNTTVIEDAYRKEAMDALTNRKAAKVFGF
Assay: biochemical
Type: biochemical, Ustilago maydis
Conditions: 5 mM additive; 1 mM (or 1.95 mM) methyl ferulate, 1 h, 37 °C, 50 mM Tris pH 7.5; without additive = 100 %; standard error in parentheses; ND = activity not detectable
ENDPOINT: Relative esterase activity

Answered examples (4):
Record [Cl-].[Cl-].[Co+2] , field Relative esterase activity: 67 (0.11) %

Record O=S(=O)([O-])[O-].[Zn+2] , field Relative esterase activity: 76 (1.26) %

Record [Ca+2].[Cl-].[Cl-] , field Relative esterase activity: 103 (2.76) %

Record [Cl-].[Cs+] , field Relative esterase activity: 105 (1.21) %

New cases:
Record O=[N+]([O-])[O-].O=[N+]([O-])[O-].[Sr+2] , field Relative esterase activity: 104 (0,18) %

Record [Cl-].[K+] , field Relative esterase activity: 108 (0.57) %

Record O=S(=O)([O-])[O-].O=S(=O)([O-])[O-].O=S(=O)([O-])[O-].[Al+3].[Al+3] [Al2(SO4)3] , field Relative esterase activity: 53 (0.12) %

Record [Cl-].[Li+] , field Relative esterase activity: 106 (1.39) %

Record O=S(=O)([O-])[O-].[Mn+2] , field Relative esterase activity: 90 (0.09) %

Record O=[N+]([O-])[O-].O=[N+]([O-])[O-].O=[N+]([O-])[O-].[Cr+3] , field Relative esterase activity: 69 (3.54) %

Record O=S(=O)([O-])[O-].[Ni+2] , field Relative esterase activity: 108 (0.87) %

====

Form field: Specific activity (one value per entry).
Target: RsChlE (Rhizoctonia solani)
Sequence (A0A1D0BQV8 39-563): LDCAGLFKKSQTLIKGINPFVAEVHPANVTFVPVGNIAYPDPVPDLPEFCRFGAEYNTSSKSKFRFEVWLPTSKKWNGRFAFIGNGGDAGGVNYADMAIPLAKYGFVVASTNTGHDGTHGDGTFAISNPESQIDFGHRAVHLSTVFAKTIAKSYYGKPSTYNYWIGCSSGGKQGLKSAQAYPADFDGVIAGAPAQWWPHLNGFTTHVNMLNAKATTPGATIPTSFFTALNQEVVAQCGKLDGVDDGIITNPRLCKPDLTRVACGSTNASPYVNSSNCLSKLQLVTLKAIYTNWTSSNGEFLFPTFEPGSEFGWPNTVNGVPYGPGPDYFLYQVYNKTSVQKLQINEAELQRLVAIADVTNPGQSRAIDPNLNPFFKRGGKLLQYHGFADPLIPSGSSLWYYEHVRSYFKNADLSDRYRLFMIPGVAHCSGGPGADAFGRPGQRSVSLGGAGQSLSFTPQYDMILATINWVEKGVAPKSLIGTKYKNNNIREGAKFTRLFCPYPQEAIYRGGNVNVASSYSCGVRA
Assay: Substrate specificity of purified RsChlE
Format: biochemical
Conditions: 1 mM (or 1.95 mM) substrate, 1 h, 30 °C, 50 mM Bis-Tris pH 6.0
// note: answer is a bare numeric in U/mg

Answered examples (4):
Record CCOC(=O)/C=C/c1ccc(O)c(OC)c1 [ethyl ferulate] , field Specific activity: 3.60

Record O=C(/C=C/c1ccc(O)c(O)c1)O[C@@H]1C[C@](O)(C(=O)O)C[C@@H](O)[C@H]1O , field Specific activity: 5.15

Record CCOC(=O)C=Cc1ccccc1 [ethyl cinnamate] , field Specific activity: 0.91

Record COC(=O)/C=C/c1ccc(O)c(O)c1 [methyl caffeate] , field Specific activity: 4.61

New cases:
Record COc1cc(/C=C/C(=O)OC[C@@H]2OC(O)[C@H](O[C@@H]3OC[C@@H](O)[C@H](O)[C@H]3O)[C@H]2O)ccc1O (stereo partly shown) , field Specific activity: 4.97

Record COC(=O)C=Cc1ccccc1 [methyl cinnamate] , field Specific activity: 2.10

Record COC(=O)/C=C/c1ccc(O)cc1 [methyl p-coumarate] , field Specific activity: 6.19

====

Target: UmChlE (Mycosarcoma maydis, UniProt A0A060S684, P492L)
Construct: purification of the chlorogenic acid esterase UmChlE from culture supernatant of U. maydis was accomplished by three complementary separation steps; made in house; host or cells: Ustilago maydis itself (native producer), culture supernatant; Q Sepharose FF, preparative IEF, polyamide column
Assay type: biochemical, Ustilago maydis
Conditions: 1 mM (or 1.95 mM) substrate, 1 h, 37 °C, 50 mM Tris pH 7.5; ND = activity not detectable
Experimental: Chlorogenic acid esterase activity was determined at 37 °C in 50 mM Tris buffer at pH 7.5 using chlorogenic acid and methyl ferulate as standard substrates, unless otherwise stated. The release of the corresponding free acids was analyzed with HPLC-UV. If appropriate, the hydrolysis of other benzoic and cinnamic acid ester derivatives as well as feruloylated saccharides was measured with the same method. […]
Form field: Specific esterase activity (one value per entry).
// note: answer is a bare numeric in U mg^-1

Answered examples (3):
Record CCOC(=O)/C=C/c1ccc(O)c(OC)c1 [ethyl ferulate] , field Specific esterase activity: 0.78

Record COC(=O)/C=C/c1ccc(O)c(OC)c1 [methyl ferulate] , field Specific esterase activity: 1.27

Record COC(=O)/C=C/c1ccc(O)cc1 [methyl p-coumarate] , field Specific esterase activity: 1.43

New cases:
Record COC(=O)/C=C/c1ccc(O)c(O)c1 [methyl caffeate] , field Specific esterase activity: 0.49

====

Target: UmChlE (Mycosarcoma maydis, UniProt A0A060S684, P492L)
Construct: purification of the chlorogenic acid esterase UmChlE from culture supernatant of U. maydis was accomplished by three complementary separation steps; made in house; host or cells: Ustilago maydis itself (native producer), culture supernatant; Q Sepharose FF, preparative IEF, polyamide column
Test: biochemical
Assay type: biochemical, Ustilago maydis
Details: 5 mM additive; 1 mM (or 1.95 mM) methyl ferulate, 1 h, 37 °C, 50 mM Tris pH 7.5; without additive = 100 %; standard error in parentheses; ND = activity not detectable
Form field: Relative esterase activity (one value per entry).

Answered examples (2):
Record O=[N+]([O-])[O-].O=[N+]([O-])[O-].[Cu+2] , field Relative esterase activity: 96 (0.53) %

Record [Cl-].[Cl-].[Mg+2] , field Relative esterase activity: 106 (0. 53) %

New cases:
Record O=S(=O)([O-])[O-].[Fe+2] , field Relative esterase activity: 102 (0.50) %

Record [Cl][Fe]([Cl])[Cl] , field Relative esterase activity: 66 (0.65) %

====

Target: RsChlE (Rhizoctonia solani)
Assay: Substrate specificity of purified RsChlE
Type: biochemical
Details: 1 mM (or 1.95 mM) substrate, 1 h, 30 °C, 50 mM Bis-Tris pH 6.0
Experimental: Chlorogenic acid esterase activity was determined at 37 °C in 50 mM Tris buffer at pH 7.5 using chlorogenic acid and methyl ferulate as standard substrates, unless otherwise stated. The release of the corresponding free acids was analyzed with HPLC-UV. If appropriate, the hydrolysis of other benzoic and cinnamic acid ester derivatives as well as feruloylated saccharides was measured with the same method. […]
ENDPOINT: Specific activity (U/mg)
// note: answer is a bare numeric in U/mg

Record COc1cc(/C=C/C(=O)OC[C@@H]2OC(O)[C@H](O)[C@H]2O)ccc1O (stereo partly drawn) [F-A, 5-O-trans-feruloyl-L-arabinofuranose] , field Specific activity: 4.48

Record COc1cc(/C=C/C(=O)OC[C@@H]2OC(O)[C@H](O[C@@H]3OC[C@@H](O)[C@H](O)[C@H]3O[C@@H]3O[C@@H](CO)[C@@H](O)[C@@H](O)[C@@H]3O)[C@H]2O)ccc1O (stereo partly drawn) , field Specific activity: 3.66

New cases:
Record COC(=O)/C=C/c1ccc(O)c(OC)c1 [methyl ferulate] , field Specific activity: 3.19
